Assay system S. aureus ATCC 33591 (Sa91); read-out recorded as MIC.
Write it as a number; the unit µg/mL goes unstated.

Solved cases below.
O=C(O)c1ccc(-n2cc(/C=N/Nc3ccc(F)c(Cl)c3)c(-c3ccc4ccccc4c3)n2)cc1; 6.25
O=C(O)c1ccc(-n2cc(/C=N/N(Cc3ccccc3)Cc3ccccc3)c(-c3ccc4ccccc4c3)n2)cc1; 1.56
O=C(O)c1ccc(-n2cc(/C=N/N(c3ccccc3)c3ccccc3)c(-c3ccc4ccccc4c3)n2)cc1; 3.12
CN[C@H](CC(C)C)C(=O)N[C@H]1C(=O)N[C@@H](CC(N)=O)C(=O)N[C@H]2C(=O)N[C@H]3C(=O)N[C@H](C(=O)N[C@H](C(=O)O)c4cc(O)cc(O)c4-c4cc3ccc4O)[C@H](O)c3ccc(c(Cl)c3)Oc3cc2cc(c3O[C@@H]2O[C@H](CO)[C@@H](O)[C@H](O)[C@H]2O[C@H]2C[C@](C)(N)[C@H](O)[C@H](C)O2)Oc2ccc(cc2Cl)[C@H]1O [VC, vancomycin, reference compound]; 3.12

# next molecule below
Lab note: need MIC with S. aureus ATCC 33591 (Sa91) for entry `O=C(O)c1ccc(-n2cc(/C=N/Nc3ccc(C(F)(F)F)cc3)c(-c3ccc4ccccc4c3)n2)cc1` , please look it up. 25

###

# Tested on: A. baumannii ATCC 19606 (type strain, Ab06)
# EXPERIMENT SUMMARY: MIC and MBC
# Type: cell-based, Acinetobacter baumannii
# EXPERIMENTAL PARAMETERS: Acinetobacter baumannii, ATCC19606
ASSAY READOUT: MIC (µg/mL)
Write it as a number; the unit µg/mL goes unstated.

Query (molecule): `O=C(O)c1ccc(-n2cc(/C=N/Nc3ccc(F)c(Cl)c3)c(-c3ccc4ccccc4c3)n2)cc1` ; field requested: MIC 6.25

Query (molecule): `O=C(O)c1ccc(-n2cc(/C=N/Nc3cccc(F)c3)c(-c3ccc4ccccc4c3)n2)cc1` ; field requested: MIC 6.25

Query (molecule): `O=C(O)c1ccc(-n2cc(/C=N/Nc3ccc(Br)cc3)c(-c3ccc4ccccc4c3)n2)cc1` ; field requested: MIC 1.56

Query (molecule): `O=C(O)c1ccc(-n2cc(/C=N/Nc3ccc(Cl)cc3)c(-c3ccc4ccccc4c3)n2)cc1` ; field requested: MIC 3.12

###

Assay system S. aureus ATCC 33591 (Sa91); read-out recorded as MIC.

O=C(O)c1ccc(-n2cc(/C=N/Nc3c(F)c(F)cc(F)c3F)c(-c3ccc4ccccc4c3)n2)cc1; > 50 µg/mL
O=C(O)c1ccc(-n2cc(/C=N/Nc3ccccc3)c(-c3ccc4ccccc4c3)n2)cc1; > 25 µg/mL

# next molecule below
Lab note: need MIC with S. aureus ATCC 33591 (Sa91) for entry `O=C(O)c1ccc(-n2cc(/C=N/Nc3ccc([N+](=O)[O-])cc3)c(-c3ccc4ccccc4c3)n2)cc1` , please look it up. > 50 µg/mL
